# Tested on: MDA-N
# protocol-description: NCI tumour cell line growth inhibition, 48 h
property-label: TGI

1) CC(C)Oc1cc(O)c2c(c1)OCC=C2CCC(=O)O : 54.7 µM
2) O=Cc1ccc(-c2cccs2)s1 : > 100 µM
3) CC(C)(C)OC[C@H](O)CC#N : > 100 µM
4) OCC1OC(n2cnc3c(/C=C(/O)c4ccccc4)ncnc32)C(O)C1O (stereo unspecified) : > 100 µM
5) CCOC(=O)C(CS)NC(=O)CCCCCCCC(=O)NC(CS)C(=O)OCC (stereo unspecified) : > 100 µM
6) CC1CCN(CC(=O)N2c3ccccc3Sc3cc4ccccc4cc32)CC1 : > 100 µM
7) c1nnc(NCNc2nncs2)s1 : > 100 µM
8) CN(C)CCCOCCn1c2c(c3ccccc31)CCCC2 : 29 µM

Give measured TGI for every item shown.
1. CC(=O)c1cc2c(s1)C(=O)c1ccccc1C2=O
2. Cc1cc(=O)oc2cc(O)ccc12
3. Cc1cc(=O)oc2cc(O)c(CN(C)CC(=O)O)cc12
4. CC1(COS(=O)(=O)OCC2(C)COS(=O)(=O)OC2)COS(=O)(=O)OC1
5. O=C(CNc1ccc(Cl)cc1Cl)NC1C=Cc2ccc(S(=O)(=O)Nc3ccc(Cl)cc3Cl)cc2C1=O (stereo unspecified)
6. NC(N)=NS(=O)(=O)c1ccc(NC(=O)c2ccc3nc4ccccc4c(Nc4ccc(S(N)(=O)=O)cc4)c3c2)cc1

["4.74 µM", "> 100 µM", "> 100 µM", "> 100 µM", "> 100 µM", "> 100 µM"]
